So I've got a bunch of compounds here, and I need their pIC50 values.
biological target: Y2 receptors (Homo sapiens, UniProt P49146); construct: endogenous in cells; host or cells: KAN-Ts cells (membranes); assay: Radioligand binding assay ([125I]PYY, KAN-Ts cell membranes); conditions: Table 2, [125I]PYY 80 pM, average of results, read-out: IC50
Sequence (P49146 whole entry): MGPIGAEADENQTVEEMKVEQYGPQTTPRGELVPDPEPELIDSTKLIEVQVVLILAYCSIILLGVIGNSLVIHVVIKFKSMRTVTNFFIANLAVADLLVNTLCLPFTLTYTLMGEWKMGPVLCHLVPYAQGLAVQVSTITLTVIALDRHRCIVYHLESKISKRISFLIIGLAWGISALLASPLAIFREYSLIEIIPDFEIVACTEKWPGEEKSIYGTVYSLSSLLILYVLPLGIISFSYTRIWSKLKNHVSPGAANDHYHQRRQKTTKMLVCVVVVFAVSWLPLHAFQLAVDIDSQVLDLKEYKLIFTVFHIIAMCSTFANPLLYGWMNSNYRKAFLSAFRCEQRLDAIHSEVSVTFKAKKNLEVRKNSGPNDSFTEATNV
Units for pIC50: none; it is -log10 of a concentration expressed in mol/L.

Quick one: pIC50 for CCN(CC)C(=O)C(c1ccccc1)N1CCN(c2ccc(CC(=O)N(C)Cc3ccccc3)cc2F)CC1 (stereo not shown) ?
5.68

Quick one: pIC50 for CCC(CC)C(=O)Nc1ccc(N2CCN(C(C(=O)N(CC)CC)c3cccc(Cl)c3)CC2)c(F)c1 (stereo not shown) ?
7.30

Quick one: pIC50 for CCC(CC)C(=O)Nc1ccc(N2CCN(Cc3ccccc3)C(C(=O)OC)C2)c(F)c1 (stereo not shown) ?
5.40

Quick one: pIC50 for CCN(CC)C(=O)C(c1ccccc1)N1CCN(c2c(F)cc(NC(=O)C3CCCC3)cc2F)CC1 (stereo not shown) ?
6.82

Quick one: pIC50 for CCN(CC)C(=O)C(c1ccccc1)N1CCN(c2ccc(NC(=O)CC3CCCC3)cc2F)CC1 (stereo not shown) ?
5.52

Quick one: pIC50 for CCNC(=O)Cc1ccc(N2CCN(C(C(=O)N(CC)CC)c3ccccc3)CC2)c(F)c1 (stereo not shown) ?
5.37

Quick one: pIC50 for CCC(CC)C(=O)Nc1cnc(N2CCN(C(C(=O)N(CC)CC)c3ccccc3)CC2)nc1 (stereo not shown) ?
5.78

Quick one: pIC50 for CCN(CC)C(=O)C(c1ccccc1)C1CCN(c2ccc(NC(=O)C3CCCC3)cn2)CC1 (stereo not shown) ?
6.40

Quick one: pIC50 for CCOC(=O)C(c1ccccc1)N1CCN(c2ccc(N3CCN(C4CCCC4)S3(=O)=O)cc2F)CC1 (stereo not shown) ?
6.11

Quick one: pIC50 for CCN(CC)C(=O)C(c1ccccc1)N1CCN(c2ccc(CC(=O)N3CCCC3)cc2F)CC1 (stereo not shown) ?
5.92

Quick one: pIC50 for CCN(CC)C(=O)C(c1ccccc1)N1CCN(c2ccc(NC(=O)C3CCCC3)cc2OC)CC1 (stereo not shown) ?
5.89

Quick one: pIC50 for CCC(CC)C(=O)Nc1ccc(N2CCN(C(C(=O)c3ccccc3)c3ccccc3)CC2)c(F)c1 (stereo not shown) ?
7.15

Quick one: pIC50 for CCOC(=O)C(c1ccccc1)N1CCN(c2ccc(N3CCN(C4CCOC4)S3(=O)=O)cc2F)CC1 (stereo not shown) ?
5.54

Quick one: pIC50 for CCC(CC)NC(=O)c1ccc(N2CCN(C(C(=O)N(CC)CC)c3ccccc3)CC2)c(F)c1 (stereo not shown) [Example 245] ?
5.52

Quick one: pIC50 for CCN(CC)C(=O)C(c1ccccc1)C1CCN(c2ccc(NC(=O)C3CCCC3)cc2F)CC1 (stereo not shown) ?
7.40

Quick one: pIC50 for CCC(CC)C(=O)Nc1ccc(N2CCN(C(C(=O)N(CC)CC)c3ccc(C#N)cc3)CC2)c(F)c1 (stereo not shown) ?
7.36

Quick one: pIC50 for CCC(CC)C(=O)Nc1ccc(N2CCN(C(C)c3ccccc3)CC2)c(F)c1 (stereo not shown) ?
5.90

Quick one: pIC50 for CCC(CC)C(=O)Nc1ccc(N2CCN(C(CO)c3ccccc3)CC2)c(F)c1 (stereo not shown) ?
6.11

Quick one: pIC50 for CCC(CC)C(=O)NCc1ccc(N2CCN(C(C(=O)N(CC)CC)c3ccccc3)CC2)c(F)c1 (stereo not shown) ?
6.59

Quick one: pIC50 for CC[C@H](C)C(=O)Nc1ccc(N2CCC(C(C(=O)N(CC)CC)c3ccccc3)CC2)c(C#N)c1 (stereo in doubt) ?
7.52

Quick one: pIC50 for CCC(CC)C(=O)Nc1ccc(N2CCN(C(C(=O)N(CC)CC)c3ccc(OC(F)(F)F)cc3)CC2)c(F)c1 (stereo not shown) ?
7.59

Quick one: pIC50 for CCC(CC)C(=O)Nc1ccc(N2CCC(C(C(=O)OC)c3ccccc3)CC2)c(F)c1 (stereo not shown) ?
7.40

Quick one: pIC50 for CCC(CC)C(=O)Nc1ccc(N2CCN(C(C(=O)NN)c3ccccc3)CC2)c(F)c1 (stereo not shown) ?
6.06

Quick one: pIC50 for CCN(CC)C(=O)C(c1ccccc1)N1CCN(c2ccc(Nc3ncccc3C)cc2F)CC1 (stereo not shown) ?
5.30

Quick one: pIC50 for CCC(CC)C(=O)Nc1ccc(N2CCN(C(C(=O)N3CCC(F)(F)C3)c3ccccn3)CC2)c(F)c1 (stereo not shown) ?
6.89

Quick one: pIC50 for CCC(CC)C(=O)Nc1ccc(N2CCC(C(C(=O)N3CC(F)(F)C3)c3ccccc3)CC2)c(F)c1 (stereo not shown) ?
7.15

Quick one: pIC50 for CCC(CC)C(=O)Nc1ccc(N2CCC(C(C(=O)NC3CC3)c3ccccc3)CC2)c(F)c1 (stereo not shown) ?
7.26

Quick one: pIC50 for CCCS(=O)(=O)N(c1ccc(N2CCN(C(C(=O)N(CC)CC)c3ccccc3)CC2)c(F)c1)S(=O)(=O)CCC (stereo not shown) ?
6.25

Quick one: pIC50 for CCN(CC)C(=O)C(c1ccccc1)N1CCN(c2ccc(CC(=O)NC3CCCC3)cc2F)CC1 (stereo not shown) ?
5.06

Values compiled from patent US8183239B2.
